- System tested: Disintegrin and metalloproteinase domain-containing protein 10 (Homo sapiens) (UniProt O14672)
- Sequence (O14672 214-748 limits assumed): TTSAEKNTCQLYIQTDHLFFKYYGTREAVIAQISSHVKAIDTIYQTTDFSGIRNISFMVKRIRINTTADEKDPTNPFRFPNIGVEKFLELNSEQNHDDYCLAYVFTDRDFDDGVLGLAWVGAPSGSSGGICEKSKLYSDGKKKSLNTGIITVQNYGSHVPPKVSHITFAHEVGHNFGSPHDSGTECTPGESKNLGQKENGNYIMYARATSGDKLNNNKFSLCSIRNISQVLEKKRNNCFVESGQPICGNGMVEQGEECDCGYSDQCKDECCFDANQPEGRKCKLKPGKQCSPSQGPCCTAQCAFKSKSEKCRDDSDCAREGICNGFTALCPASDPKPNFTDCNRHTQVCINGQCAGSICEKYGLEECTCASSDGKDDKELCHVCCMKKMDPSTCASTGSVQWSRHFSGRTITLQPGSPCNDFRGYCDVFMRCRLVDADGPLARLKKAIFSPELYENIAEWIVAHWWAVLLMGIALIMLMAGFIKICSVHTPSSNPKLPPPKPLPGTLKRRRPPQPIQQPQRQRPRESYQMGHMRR
- Method summary: blockers of ADAM10 peptide cleavage – biochemical, QFRET, HTS, primary screen (AID 720582);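 note: 0% = DMSO wells while the 100% control is not disclosed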
- Applied conditions: recombinant ADAM10, EDANS/DABCYL FRET peptide cleavage, 3 h; at 7 µM; hits give high values
Screen size: about 370,000 compounds; about 2,300 (0.62%) were called active. Only a selection was taken, and actives are over-represented in it overall.
Metric: inhibition (%)
Express the result in % but write the number alone.

Please review the following examples before continuing.
# Compound, Uom, inhibition
rows = [
    ("Cc1ccc(CN2CCCCC(NC(=O)C3CCCCC3)C2=O)cc1 (stereo unspecified)", "%", -0.65),
    ("NC(=O)c1ccccc1N(Cc1ccccc1)S(=O)(=O)c1ccccc1", "%", 14.4),
    ("NS(=O)(=O)c1ccc(NC(=S)NC(=O)c2cccnc2)cc1", "%", -8.74),
    ("Cc1ccc(C)c(NC(=O)NNC(=O)c2ccc3ccccc3c2O)c1", "%", -78.3),
    ("O=C(NCCCc1ccccc1)[C@H](Cc1ccccc1)NC1(C(=O)NCCc2c[nH]c3ccccc23)CCC1", "%", 10.8),
    ("Cc1ccccc1CS(=O)(=O)Cc1ccc(C(=O)Nc2ccc(Cl)cc2)o1", "%", -29),
    ("O=C(/C=C/c1ccc(F)cc1)NC(=S)NNC(=O)c1cccnc1", "%", 22.8),
    ("Cc1ccc(C)c(NC(=S)NNC(=O)c2csc(C)c2)c1", "%", 24.9),
    ("COc1cccc(Cn2cc(COC(=O)Nc3ccc(F)cc3)nn2)c1", "%", 3.55),
    ("COC(=O)CN1C(C)=Nc2ccc(Br)cc2C1c1ccccc1 (stereo unspecified)", "%", -0.34),
]

# input For the compound shown here, COC(=O)C1=C(C)N(C)C(C)=C(C(=O)OC)C1c1cccc(Br)c1 , give the reported inhibition.
# output 1.25

# input Ok, now O=C(O)c1cc(S(=O)(=O)N(Cc2ccccc2)c2ccccc2)ccc1Cl
# output 2.05

# input Ok, now Cc1cccc(OCCNC(=S)NC(=O)c2cccnc2)c1
# output 2.33

###

- System tested: Disintegrin and metalloproteinase domain-containing protein 10 (Homo sapiens)
- Method summary: blockers of ADAM10 peptide cleavage – biochemical, QFRET, HTS, primary screen (AID 720582);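 note: 0% = DMSO wells while the 100% control is not disclosed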
- Applied conditions: recombinant ADAM10, EDANS/DABCYL FRET peptide cleavage, 3 h; at 7 µM
Among all 370,000 compounds or so, about 2,300 (0.62%) were called active.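 How the source made its calls: active means inhibition above a per-campaign cutoff equal to the mean of compounds falling between control-based bounds plus 3 SD (cut at about 20% in these data); inactive means the rest.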 The entries come from a sample that favours actives as a whole.
Pick one and only one: active, inactive

# Compound, System tested, Assigned label
rows = [
    ("CC(C)(C)c1ccc(C(=O)Nc2cc(Cl)c(Br)cc2C(=O)O)cc1", "Disintegrin and metalloproteinase domain-containing protein 10 (Homo sapiens)", "active"),
    ("CSc1ccc(C#N)cc1NC(=O)c1ccc(Cl)cc1", "Disintegrin and metalloproteinase domain-containing protein 10 (Homo sapiens)", "inactive"),
]

Consider now this further compound.
# input Record lookup: outcome of this test for Cc1c(C(C)c2ccccc2O)[nH]c2ccccc12 (stereo unspecified) ?
# output inactive

###

Below is a list of entries, each paired with its recorded inhibition value.
- System tested: Disintegrin and metalloproteinase domain-containing protein 10 (Homo sapiens) (UniProt O14672)
- Method summary: blockers of ADAM10 peptide cleavage – biochemical, QFRET, HTS, primary screen (AID 720582);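 note: 0% = DMSO wells while the 100% control is not disclosed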
- Applied conditions: recombinant ADAM10, EDANS/DABCYL FRET peptide cleavage, 3 h; at 7 µM; hits give high values
Screen size: about 370,000 compounds; about 2,300 (0.62%) were called active. The entries come from a sample that favours actives as a whole.
Express the result in % but write the number alone.

Please review the following examples before continuing.
# Molecule, inhibition / %
rows = [
    ("Cc1csc(NC(=O)CSc2nnc(-c3cccnc3)o2)n1", -10.7),
    ("Cc1ccc(OCC(=O)Nc2ccc(C(=O)O)cc2NC(=O)COc2ccc(C)c(C)c2)cc1C", -2.89),
    ("COc1ccccc1OCCOc1ccc(/C=C2\\C(=N)N3N=C(C)SC3=NC2=O)cc1", -72.1),
    ("Cc1ccccc1NC(=O)C1CCN(c2ncccn2)CC1", -49.2),
    ("COc1ccc(OCCn2ccnc2C)cc1", 3.1),
]

# input For the molecule shown here, COc1ccc(-n2c(SCC(=O)Nc3ccc4cn[nH]c4c3)nnc2-c2cccnc2)cc1 , give the reported inhibition.
# output 3.52

# input Ok, now CCCCNC(=O)C[C@H]1C[C@@]2(C(=O)OC)C(=C[C@H](COCc3ccccc3)O[C@@H]2C)N(Cc2ccc(Cl)cc2Cl)C1=O
# output 9.41

# input Ok, now CSc1ccc(C=Nn2c(-c3ccc(F)cc3)n[nH]c2=S)cc1
# output -11.4

# input Ok, now COC1=C[C@H](C(=O)NCCNC(C)=O)[C@H](C)[C@@H](c2ccccc2)CC1=O
# output 4.85

# input Ok, now N#Cc1nc(COc2ccc(Cl)cc2)oc1N1CCCC1
# output 1.11

# input Ok, now O=S(=O)(c1ccc(Br)cc1)c1nc(-c2ccccc2)oc1NCc1cccnc1
# output 4.12

# input Ok, now O=C(COC(=O)COc1ccccc1F)Nc1cccc(S(=O)(=O)N2CCCCC2)c1
# output -11.9

# input Ok, now Cc1nc(CNc2ncnc3ccc(-c4ccc5c(c4)OCO5)cc23)cs1
# output -136

# input Ok, now NS(=O)(=O)c1ccc(NC(=O)COC(=O)C2(c3ccc(F)cc3)CCCC2)cc1
# output 13

# input Ok, now c1ccc(C2CNCc3c2ccc2ccccc32)cc1 (stereo unspecified)
# output -2.76

# input Ok, now O=S1(=O)c2ccc(N3CCN(Cc4ccccc4F)CC3)cc2Oc2ccccc2CN1Cc1cn(Cc2ccc(Cl)cc2)nn1
# output 7.21
